# BMAX [gMFI] values compiled below
Biological target: T1, Human LILRB2 on stably transduced HEK293T cells (human, UniProt Q8N423 22-597)
T1 construct: Lentiviral transduction (G&P Biosciences LTV2992); also called HEK293T-LILRB2; LILRB2-expressing HEK293T cells
T1 sequence (Q8N423 other isoform, or with tags, fused parts or gaps limits assumed): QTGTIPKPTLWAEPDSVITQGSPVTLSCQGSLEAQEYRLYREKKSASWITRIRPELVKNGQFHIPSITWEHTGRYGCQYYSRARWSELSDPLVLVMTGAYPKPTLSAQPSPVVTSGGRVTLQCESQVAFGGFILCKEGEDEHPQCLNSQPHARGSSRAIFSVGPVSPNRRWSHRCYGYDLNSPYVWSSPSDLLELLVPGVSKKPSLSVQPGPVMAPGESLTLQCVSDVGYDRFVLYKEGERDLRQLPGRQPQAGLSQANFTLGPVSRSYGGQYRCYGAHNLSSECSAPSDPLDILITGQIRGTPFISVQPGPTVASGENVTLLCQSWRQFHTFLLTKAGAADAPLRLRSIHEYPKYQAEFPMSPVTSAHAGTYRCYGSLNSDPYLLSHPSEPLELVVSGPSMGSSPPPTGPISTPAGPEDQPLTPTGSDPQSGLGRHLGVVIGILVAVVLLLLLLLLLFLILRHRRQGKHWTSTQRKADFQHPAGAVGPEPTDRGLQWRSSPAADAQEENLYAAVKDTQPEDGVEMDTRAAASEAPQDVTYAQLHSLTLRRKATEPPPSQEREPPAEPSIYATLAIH
Test: flow cytometry, HEK293T cells stably expressing human LILRB2
endpoint-label: BMAX [gMFI] (gMFI)

INSERT INTO assay_data (binder, unit_spec, endpoint_result) VALUES
  ('B2H4-44 (antibody, V domains shown, Humanized variant, human IgG4 / kappa) VH: EVQLLESGGRLVQPGTSLRLSCAVSGFSLSTYAMSWVRQAPGKGLEWIGWIYNDGSTYYAAWAKGRFTISKDTSKTTLYLQMNSLTVEDTATYFCAREGDYIGYFNIWGQGTLVTVSS VL: DIQMTQSPSSVSASVGDRVTITCQASQSIGSNLAWYQQKPGKAPKLLIYAAATLASGVPLRFSGSGSGTDFTLTISNLQPEDSATYYCQSYVSGSSDVAFGGGTKVEIK', 'gMFI', 10900),
  ('B2H4-13 (antibody, V domains shown, Humanized variant, human IgG4 / kappa) VH: QVQLEESGGRVVQPGRSLRLSCAASGFSLSTYAMSWVRQAPGKGLEWIGWIYNDGSTYYAAWAKGRFTISKDTSKTTVFLQMNSLKPDDTATYFCAREGDYIGYFNIWGQGTLVTVSS VL: DIEMTQSPSSVSASVGDRVTLTCQASQSIGSNLAWYQQKPGQAPKLLIYAAATLASGVPSRFKGSGSGTDFTLTISSLQPEDFATYYCQSYVSGSSDVAFGGGTEVVVK', 'gMFI', 9950),
  ('B2H4-55 (antibody, V domains shown, Humanized variant, human IgG4 / kappa) VH: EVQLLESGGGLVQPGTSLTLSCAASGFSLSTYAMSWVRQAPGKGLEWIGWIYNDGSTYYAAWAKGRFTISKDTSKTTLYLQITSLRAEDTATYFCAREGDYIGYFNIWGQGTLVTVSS VL: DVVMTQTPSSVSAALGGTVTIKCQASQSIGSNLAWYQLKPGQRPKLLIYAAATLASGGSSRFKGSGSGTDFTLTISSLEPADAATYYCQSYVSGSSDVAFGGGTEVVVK', 'gMFI', 10800),
  ('B2H4-35 (antibody, V domains shown, Humanized variant, human IgG4 / kappa) VH: QVQLVESGGRVVQPGTPLRLSCAASGFSLSTYAMSWVRQAPGKGLEWVAWIYNDGSTYYAAWAKGRFTISRDTSKNTLYLQTNSLKPDDTAVYYCAREGDYIGYFNIWGQGTLVTVSS VL: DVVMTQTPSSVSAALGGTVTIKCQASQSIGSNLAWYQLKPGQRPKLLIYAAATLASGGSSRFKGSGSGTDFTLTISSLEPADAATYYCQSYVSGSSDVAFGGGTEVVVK', 'gMFI', 9990);
